meta.source: BindingDB's records for patent US20240182487

- MEASURED TARGET: UniProtKB P00533
pIC50: −log10 of the molar value.
Below: a set of entries, each annotated with reported pIC50.
MEASURED PARAMETER: pIC50

compound=Cc1nc2cc3c(n[nH]c13)/C=C/c1cc(F)ccc1OCCCOc1c-2cnn1C measured_target="UniProtKB P00533" assay_value=5.91
compound=CCc1nn(C)c2c1/C=C/c1n[nH]c3cnc(cc13)-c1cc(F)ccc1OCCN(C)C2=O measured_target="UniProtKB P00533" assay_value=6.51
compound=Cn1ncc2c1OCCCOc1ccc(F)cc1/C=C/c1n[nH]c3cnc-2cc13 measured_target="UniProtKB P00533" assay_value=6.75
compound=Cn1ncc2c1OCCCOc1ccc(C(=O)N3CCCC3)cc1/C=C/c1n[nH]c3cnc-2cc13 measured_target="UniProtKB P00533" assay_value=7.31
compound=Cn1ncc2c1COCCOc1ccccc1/C=C/c1n[nH]c3cnc-2nc13 measured_target="UniProtKB P00533" assay_value=6.26
compound=Cn1ncc2c1COCCOc1ccc(C(=O)O)cc1/C=C/c1n[nH]c3cnc-2cc13 measured_target="UniProtKB P00533" assay_value=6.57
compound=COC(=O)c1ccc2c(c1)/C=C/c1n[nH]c3cnc(cc13)-c1cnn(C)c1COCCO2 measured_target="UniProtKB P00533" assay_value=6.03
compound=CN(C)CCNC(=O)c1ccc2c(c1)OCCCOc1c(cnn1C)-c1cc3c(n[nH]c3cn1)/C=C/2 measured_target="UniProtKB P00533" assay_value=8.24
compound=CN1CCC(NC(=O)c2ccc3c(c2)OCCOCc2c(cnn2C)-c2cc4c(n[nH]c4cn2)/C=C/3)CC1 measured_target="UniProtKB P00533" assay_value=6.85
compound=CN1CC[C@H](NC(=O)c2ccc3c(c2)OCCCOc2c(cnn2C)-c2cc4c(n[nH]c4cn2)/C=C/3)C1 measured_target="UniProtKB P00533" assay_value=7.71
compound="Cc1ccc2c(n1)/C=C/c1n[nH]c3cnc(cc13)-c1cnn(C)c1C(C)OCCO2 (stereo unspecified)" measured_target="UniProtKB P00533" assay_value=7.04
compound=CN1CC[C@@H](NC(=O)c2ccc3c(c2)OCCOCc2c(cnn2C)-c2cc4c(n[nH]c4cn2)/C=C/3)C1 measured_target="UniProtKB P00533" assay_value=7.10
compound=COC(=O)c1ccc2c(c1)OCCCOc1c(cnn1C)-c1cc3c(n[nH]c3cn1)/C=C/2 measured_target="UniProtKB P00533" assay_value=6.00
compound=CN1CCN(C(=O)c2ccc3c(c2)/C=C/c2n[nH]c4cnc(cc24)-c2cnn(C)c2COCCO3)CC1 measured_target="UniProtKB P00533" assay_value=6.23
compound=CN1CCC(NC(=O)c2ccc3c(c2)OCCCOc2c(cnn2C)-c2cc4c(n[nH]c4cn2)/C=C/3)CC1 measured_target="UniProtKB P00533" assay_value=8.21
compound=Cn1ncc2c1OCCCOc1cc(C(=O)O)ccc1/C=C/c1n[nH]c3cnc-2cc13 measured_target="UniProtKB P00533" assay_value=7.05

* * *

- MEASURED TARGET: Epidermal growth factor receptor [L858R,T790M,C797S] (Homo sapiens, UniProt P00533, C797S/L858R/T790M)
- Sequence (P00533 25-1210 T790M/C797S/L858R limits assumed): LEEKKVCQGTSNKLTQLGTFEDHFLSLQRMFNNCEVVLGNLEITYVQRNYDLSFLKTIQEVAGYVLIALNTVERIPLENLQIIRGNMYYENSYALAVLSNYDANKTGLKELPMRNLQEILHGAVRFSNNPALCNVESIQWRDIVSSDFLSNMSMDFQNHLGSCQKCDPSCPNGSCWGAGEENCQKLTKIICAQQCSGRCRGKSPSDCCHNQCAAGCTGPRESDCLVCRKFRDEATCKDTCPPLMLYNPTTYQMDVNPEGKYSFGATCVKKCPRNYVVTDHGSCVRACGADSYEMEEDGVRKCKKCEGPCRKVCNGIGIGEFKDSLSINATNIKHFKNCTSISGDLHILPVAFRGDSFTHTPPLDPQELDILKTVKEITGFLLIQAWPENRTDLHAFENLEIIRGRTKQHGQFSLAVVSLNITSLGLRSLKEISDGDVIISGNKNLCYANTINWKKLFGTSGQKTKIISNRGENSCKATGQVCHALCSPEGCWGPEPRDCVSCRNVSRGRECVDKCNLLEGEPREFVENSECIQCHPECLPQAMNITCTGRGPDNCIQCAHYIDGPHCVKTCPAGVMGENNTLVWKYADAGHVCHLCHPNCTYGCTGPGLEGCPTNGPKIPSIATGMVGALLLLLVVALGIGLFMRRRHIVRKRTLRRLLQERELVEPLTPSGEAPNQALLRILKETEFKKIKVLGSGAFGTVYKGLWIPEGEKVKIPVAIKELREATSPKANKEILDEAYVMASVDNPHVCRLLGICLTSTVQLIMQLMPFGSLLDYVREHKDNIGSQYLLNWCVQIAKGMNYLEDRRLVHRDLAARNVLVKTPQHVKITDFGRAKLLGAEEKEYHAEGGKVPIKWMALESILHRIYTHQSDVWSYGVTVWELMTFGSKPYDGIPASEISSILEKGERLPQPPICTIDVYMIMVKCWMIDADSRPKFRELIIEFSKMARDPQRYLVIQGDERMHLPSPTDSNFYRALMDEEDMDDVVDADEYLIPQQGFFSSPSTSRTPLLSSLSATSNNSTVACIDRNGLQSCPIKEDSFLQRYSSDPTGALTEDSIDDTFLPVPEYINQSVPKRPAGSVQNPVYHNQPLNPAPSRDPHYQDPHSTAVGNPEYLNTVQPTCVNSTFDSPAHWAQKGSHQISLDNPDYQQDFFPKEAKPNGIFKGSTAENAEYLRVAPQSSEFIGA
- PROTOCOL NOTES: Biochemical Assay
MEASURED PARAMETER: IC50 (µM)

compound=CCNC(=O)c1ccc2c(c1)OCCOCc1c(cnn1C)-c1cc3c(n[nH]c3cn1)/C=C/2 measured_parameter=IC50 assay_value=0.16
compound="Cc1ccc2c(n1)/C=C/c1n[nH]c3cnc(nc13)-c1cnn(C)c1C(C)OCCO2 (stereo unspecified)" measured_parameter=IC50 assay_value=0.0912
compound=COC(=O)c1ccc2c(c1)/C=C/c1n[nH]c3cnc(cc13)-c1cnn(C)c1COCCO2 measured_parameter=IC50 assay_value=0.184
compound=CN1CCC(NC(=O)c2ccc3c(c2)/C=C/c2n[nH]c4cnc(cc24)-c2cnn(C)c2OCCCO3)CC1 measured_parameter=IC50 assay_value=0.0034
compound=CN(C)CCCNC(=O)c1ccc2c(c1)/C=C/c1n[nH]c3cnc(cc13)-c1cnn(C)c1OCCCO2 measured_parameter=IC50 assay_value=0.0053
compound=Cn1ncc2c1OCCCOc1ccc(F)cc1/C=C/c1n[nH]c3cnc-2cc13 measured_parameter=IC50 assay_value=0.0275
compound=COC(=O)c1ccc2c(c1)OCCOCc1c(cnn1C)-c1cc3c(n[nH]c3cn1)/C=C/2 measured_parameter=IC50 assay_value=0.0983
compound=CCc1nn(C)c2c1/C=C/c1n[nH]c3cnc(cc13)-c1cc(F)ccc1OCCN(C)C2=O measured_parameter=IC50 assay_value=0.0324
compound=CNC(=O)c1ccc2c(c1)/C=C/c1n[nH]c3cnc(cc13)-c1cnn(C)c1OCCCO2 measured_parameter=IC50 assay_value=0.0088
compound=CN(C)CCNC(=O)c1ccc2c(c1)/C=C/c1n[nH]c3cnc(cc13)-c1cnn(C)c1COCCO2 measured_parameter=IC50 assay_value=0.0086
compound=CN1CC[C@@H](NC(=O)c2ccc3c(c2)OCCCOc2c(cnn2C)-c2cc4c(n[nH]c4cn2)/C=C/3)C1 measured_parameter=IC50 assay_value=0.012
